System: Mus musculus
Assay: Compound was tested for anticonvulsant activity after intraperitoneal injection into mice by using MES screen test after 0.5 hr
Format: functional
Conditions: ip
EXPERIMENTAL_READOUT: ED50 (mg/kg)
Give bare numbers, in mg/kg.

The examples below pair each entry with its known result.
input_smiles=NC(=O)N/N=C\c1ccc(Oc2cccc(Cl)c2)cc1 recorded_value=27.7
input_smiles=NC(=O)N/N=C/c1ccc(Oc2cc(F)cc(F)c2)cc1 recorded_value=12.3
input_smiles=Cc1ccc(Oc2ccc(/C=N/NC(N)=O)cc2)c(C)c1 recorded_value=4.6
input_smiles=NC(=O)N/N=C/c1ccc(Oc2ccccc2F)cc1 recorded_value=20.7

Shift focus to the following entry.
*Q* Any idea what its ED50 is? The molecule is NC(=O)N/N=C\c1ccc(OS(=O)(=O)c2ccccc2)cc1
*A* 25.3

* * *

Please provide measured TD50 at 2 h for the entries that follow.
Assay: Compound was tested for toxicity after oral administration in rat by using neurotoxicity screen test after 2 hr
Type: organism-based
Settings: in vivo

input_smiles=CCCCOc1ccc(Oc2ccc(/C=N/NC(N)=O)cc2)cc1 experimental_readout="TD50 at 2 h" recorded_value="> 100 mg/kg"

Batch of 4 molecules: report TD50 at 2 h for each.
1. NC(=O)N/N=C/c1ccc(Oc2ccc(Cl)cc2F)cc1
2. C/C(=N/NC(N)=O)c1ccc(Oc2ccc(F)cc2)cc1
3. CC(=O)N/N=C/c1ccc(Oc2ccc(F)cc2)cc1
4. NC(=O)N/N=C/c1ccc(Oc2c(F)cccc2F)cc1

*A*
1. > 90 mg/kg
2. 109 mg/kg
3. > 125 mg/kg
4. > 500 mg/kg

* * *

Test: Compound was tested for toxicity after intraperitoneal injection into mice by using neurotoxicity screen test after 1 hr
Assay type: organism-based
Conditions: mouse, in vivo, ip
EXPERIMENTAL_READOUT: TD50 at 1 h
I'd appreciate it if you wrote the number followed by its unit.

input_smiles=NC(=O)N/N=C/c1ccc(Oc2ccc(F)cc2Cl)cc1 experimental_readout="TD50 at 1 h" recorded_value="62.5 mg/kg"
input_smiles=NC(=O)N/N=C/c1ccc(Oc2cc(F)cc(F)c2)cc1 experimental_readout="TD50 at 1 h" recorded_value="68.8 mg/kg"
input_smiles=Cc1ccc(Oc2ccc(/C=N/NC(N)=O)cc2)c(C)c1 experimental_readout="TD50 at 1 h" recorded_value="37 mg/kg"
input_smiles=C/C(=N/NC(N)=O)c1ccc(Oc2ccc(C)cc2)cc1 experimental_readout="TD50 at 1 h" recorded_value="57.9 mg/kg"
input_smiles=NC(=O)N/N=C\c1ccc(OS(=O)(=O)c2ccccc2)cc1 experimental_readout="TD50 at 1 h" recorded_value="113 mg/kg"
input_smiles=NC(=O)N/N=C/c1ccc(Oc2ccc(Cl)cc2F)cc1 experimental_readout="TD50 at 1 h" recorded_value="36.3 mg/kg"
input_smiles=NC(=O)N/N=C/c1ccc(Oc2ccc(F)cc2)cc1 experimental_readout="TD50 at 1 h" recorded_value="108 mg/kg"
input_smiles=C/C(=N/NC(N)=O)c1ccc(Oc2ccccc2)cc1 experimental_readout="TD50 at 1 h" recorded_value="73.5 mg/kg"

Shift focus to the following entry.
*Q* Any idea what its TD50 at 1 h is? The compound is C/C(=N/NC(N)=O)c1ccc(Sc2ccc(Br)cc2)cc1
*A* 43.2 mg/kg
